For each entry below, report its pIC50 value.
Target: [35S]-TBPS binding, rat brain cortical membranes
Test: Steroid inhibition of [35S]-TBPS binding
Settings: 3 nM [35S]-TBPS, in the presence of 5 mM GABA
pIC50: −log10 of the molar value.

So for CCOC[C@@]1(O)CC[C@@]2(C)[C@H](CC[C@H]3C4CC[C@H]([C@@H](C)Nc5ccc(-n6ccc(C#N)n6)cn5)[C@@]4(C)CC[C@@H]32)C1 (stereo partly shown) , the logged pIC50 turned out to be 6.00 to 7.00

Reported pIC50 for `CCOC[C@@]1(O)CC[C@H]2[C@H](CC[C@@H]3[C@@H]2CC[C@]2(C)[C@@H]([C@@H](C)Cn4nccc4C#N)CC[C@@H]32)C1` was > 7.00

Recorded pIC50 (compound `CCOC[C@@]1(O)CC[C@H]2[C@H](CC[C@@H]3[C@@H]2CC[C@]2(C)[C@@H]([C@H](C)n4ncc(C#N)c4N)CC[C@@H]32)C1` ): 5.00 to 6.00

Quick note, pIC50 for `COC[C@@]1(O)CC[C@H]2[C@H](CC[C@@H]3[C@@H]2CC[C@]2(C)[C@@H]([C@H](C)Cn4ccc(C#N)n4)CC[C@@H]32)C1` landed at > 7.00

Summary for this compound, `CCC[C@@]1(O)CC[C@H]2[C@H](CC[C@@H]3[C@@H]2CC[C@]2(C)[C@@H]([C@@H](C)Nc4ccc(-n5ccc(C)n5)nc4C)CC[C@@H]32)C1` : pIC50 is 6.00 to 7.00

pIC50 reading for `C[C@@]1(O)CC[C@H]2[C@H](CC[C@@H]3[C@@H]2CC[C@]2(C)[C@@H](CNC(=O)Cc4ccccc4)CC[C@@H]32)C1` : > 7.00

Looking up `CCOC[C@@]1(O)CC[C@H]2[C@H](CC[C@@H]3[C@@H]2CC[C@]2(C)[C@@H]([C@H](C)Cn4cc(C#N)cn4)CC[C@@H]32)C1` , I found its pIC50 recorded as > 7.00

Item: `CCOC[C@@]1(O)CC[C@H]2[C@H](CC[C@@H]3[C@@H]2CC[C@]2(C)[C@@H]([C@@H](C)NS(=O)(=O)c4ccc(C#N)cn4)CC[C@@H]32)C1` | pIC50: > 7.00

For this compound ( `CCC[C@@]1(O)CC[C@H]2[C@H](CC[C@@H]3[C@@H]2CC[C@]2(C)[C@@H]([C@H](C)Cn4nnc(C)n4)CC[C@@H]32)C1` ), measured pIC50 is > 7.00

The measured pIC50 associated with `CCC[C@@]1(O)CC[C@@]2(CC)[C@H](CC[C@H]3[C@@H]4CC[C@H]([C@@H](C)Cn5cc(C#N)cn5)[C@@]4(C)CC[C@@H]32)C1` reads > 7.00

====

Target: [35S]-TBPS binding, rat brain cortical membranes
Test: Steroid inhibition of [35S]-TBPS binding
Settings: 3 nM [35S]-TBPS, in the presence of 5 mM GABA
pIC50: −log10 of the molar value.
Exercise: for every item that follows, state its recorded pIC50.

// pIC50 lookup, molecule = `CCC[C@@]1(O)CC[C@H]2[C@@H](CC[C@@H]3[C@@H]2CC[C@]2(C)[C@@H]([C@@H](C)Cn4nnnc4C)CC[C@@H]32)C1` , result: 6.00 to 7.00

// `CCCC[C@@]1(O)CC[C@H]2[C@H](CC[C@@H]3[C@@H]2CC[C@]2(C)[C@@H]([C@@H](C)Cn4cc(C#N)cn4)CC[C@@H]32)C1` : pIC50 value = > 7.00

So for `CC[C@@]1(O)CC[C@@]2(C)[C@H](CC[C@@H]3[C@@H]2CC[C@]2(C)[C@@H]([C@@H](C)Cn4ccc(C#N)n4)CC[C@@H]32)C1` , the logged pIC50 turned out to be > 7.00

pIC50 in this record for `C[C@@H]([C@H]1CC[C@H]2[C@@H]3CC[C@@H]4C[C@](C)(O)CC[C@@H]4[C@H]3CC[C@]12C)n1nccn1` : 5.00 to 6.00

// `CCC[C@@]1(O)CC[C@@]2(C)[C@H](CC[C@@H]3[C@@H]2[C@H](O)C[C@]2(C)[C@@H]([C@H](C)Cn4cc(C#N)cn4)CC[C@@H]32)C1` : pIC50 value = 6.00 to 7.00

Measured pIC50, `CC(C)C[C@@]1(O)CC[C@H]2[C@H](CC[C@@H]3[C@@H]2CC[C@]2(C)[C@@H]([C@H](C)Cn4cc(C#N)cn4)CC[C@@H]32)C1` : > 7.00

# molecule `CCOC[C@@]1(O)CC[C@H]2[C@H](CC[C@@H]3[C@@H]2CC[C@]2(C)[C@@H]([C@@H](C)Cn4ccnn4)CC[C@@H]32)C1` ; its pIC50 = > 7.00

So, `C[C@@H](NC(=O)c1ccc(C#N)cc1)[C@H]1CC[C@H]2[C@@H]3CC[C@@H]4C[C@](C)(O)CC[C@@H]4[C@H]3CC[C@]12C` ? Its pIC50 was 6.00 to 7.00

Given item `COC[C@@]1(O)CC[C@@]2(C)[C@H](CC[C@@H]3[C@@H]2CC[C@@]2(C)[C@H]3CC[C@]2(O)[C@H](C)Cn2cc(C#N)cn2)C1` , the value recorded as its pIC50 is 5.00 to 6.00

Form field pIC50, entry `Cc1cncc(C[C@@H](C)[C@H]2CC[C@H]3[C@@H]4CC[C@@H]5C[C@](C)(O)CC[C@@H]5[C@H]4CC[C@]23C)n1` : 6.00 to 7.00

====

Target: [35S]-TBPS binding, rat brain cortical membranes
Test: Steroid inhibition of [35S]-TBPS binding
Settings: 3 nM [35S]-TBPS, in the presence of 5 mM GABA
recorded metric: IC50

The compound listed as C[C@@H]([C@H]1CC[C@H]2[C@@H]3CC[C@@H]4C[C@](C)(O)CC[C@@H]4[C@H]3CC[C@]12C)n1cc(C#N)cn1 [Example 157] has a reported IC50 of 1 to 10 µM

Entry CCOC[C@@]1(O)CC[C@H]2[C@H](CC[C@@H]3[C@@H]2CC[C@]2(C)[C@@H]([C@@H](C)Cn4ccc(C#N)n4)CC[C@@H]32)C1 [Example 288] , IC50 reported as < 0.1 µM

Sample CC(C)C[C@@]1(O)CC[C@H]2[C@H](CC[C@@H]3[C@@H]2CC[C@]2(C)[C@@H]([C@@H](C)Cn4cc(C#N)cn4)CC[C@@H]32)C1 [Example 299] ; IC50 observed: < 0.1 µM

GET /value?item= C[C@@H](Cc1cncc(C#N)c1)[C@H]1CC[C@H]2[C@@H]3CC[C@@H]4C[C@](C)(O)CC[C@@H]4[C@H]3CC[C@]12C [Example 407] &field=IC50 returns < 0.1 µM

Record COC[C@@]1(O)CC[C@H]2[C@H](CC[C@@H]3[C@@H]2CC[C@]2(C)[C@@H]([C@H](C)Nc4ccc(C#N)cc4C)CC[C@@H]32)C1 [Example 253] , field IC50: 1 to 10 µM

====

Molecular target: [35S]-TBPS binding, rat brain cortical membranes
Experiment: Steroid inhibition of [35S]-TBPS binding
Details: 3 nM [35S]-TBPS, in the presence of 5 mM GABA
recorded metric: IC50

# value of IC50, [35S]-TBPS binding, rat brain cortical membranes, item `CN(C[C@H]1CC[C@H]2[C@@H]3CC[C@@H]4C[C@](C)(O)CC[C@@H]4[C@H]3CC[C@]12C)C(=O)c1ccccc1` = 100 to 1000 nM

Form field, IC50 with [35S]-TBPS binding, rat brain cortical membranes, item `C[C@H](NC(=O)c1ccc(F)cn1)[C@H]1CC[C@H]2[C@@H]3CC[C@@H]4C[C@](C)(O)CC[C@@H]4[C@H]3CC[C@]12C` : 100 to 1000 nM

Summary line: `Cc1cnc(C[C@H](C)[C@H]2CC[C@H]3[C@@H]4CC[C@@H]5C[C@](C)(O)CC[C@@H]5[C@H]4CC[C@]23C)s1` , [35S]-TBPS binding, rat brain cortical membranes, reported IC50 = 100 to 1000 nM

====

For each record, write down the corresponding pIC50.
Molecular target: [35S]-TBPS binding, rat brain cortical membranes
Test: Steroid inhibition of [35S]-TBPS binding
Details: 3 nM [35S]-TBPS, in the presence of 5 mM GABA
pIC50: −log10 of the molar value.

The value of pIC50 recorded for `CC[C@@]1(O)CC[C@H]2[C@@H](CC[C@@H]3[C@@H]2CC[C@]2(C)[C@@H]([C@@H](C)Cn4nnc(C)n4)CC[C@@H]32)C1` when tested on [35S]-TBPS binding, rat brain cortical membranes reads 6.00 to 7.00

Form field pIC50 for item `C[C@@H](Cc1nc(C(F)(F)F)cs1)[C@H]1CC[C@H]2[C@@H]3CC[C@@H]4C[C@](C)(O)CC[C@]4(C)[C@H]3CC[C@]12C` on [35S]-TBPS binding, rat brain cortical membranes: > 7.00

Summary: `C[C@H](NS(=O)(=O)c1ccccc1)[C@H]1CC[C@H]2[C@@H]3CC[C@@H]4C[C@](C)(O)CC[C@@H]4[C@H]3CC[C@]12C` , [35S]-TBPS binding, rat brain cortical membranes, pIC50 = 5.00 to 6.00

For the molecule `Cc1cnc(C[C@H](C)[C@H]2CC[C@H]3[C@@H]4CC[C@@H]5C[C@](C)(O)CC[C@@H]5[C@H]4CC[C@]23C)cn1` , the measured pIC50 on [35S]-TBPS binding, rat brain cortical membranes was > 7.00

The molecule `COC[C@@]1(O)CC[C@H]2[C@H](CC[C@@H]3[C@@H]2CC[C@]2(C)[C@@H]([C@@H](C)Nc4ccc(C#N)cc4C)CC[C@@H]32)C1` on [35S]-TBPS binding, rat brain cortical membranes: pIC50 was > 7.00
